These data points were gathered from paper doi:10.1101/2020.03.06.980961.

Biological target: T1, TFB2M-WT (human, UniProt Q9H5Q4 20-396)
T1 sequence: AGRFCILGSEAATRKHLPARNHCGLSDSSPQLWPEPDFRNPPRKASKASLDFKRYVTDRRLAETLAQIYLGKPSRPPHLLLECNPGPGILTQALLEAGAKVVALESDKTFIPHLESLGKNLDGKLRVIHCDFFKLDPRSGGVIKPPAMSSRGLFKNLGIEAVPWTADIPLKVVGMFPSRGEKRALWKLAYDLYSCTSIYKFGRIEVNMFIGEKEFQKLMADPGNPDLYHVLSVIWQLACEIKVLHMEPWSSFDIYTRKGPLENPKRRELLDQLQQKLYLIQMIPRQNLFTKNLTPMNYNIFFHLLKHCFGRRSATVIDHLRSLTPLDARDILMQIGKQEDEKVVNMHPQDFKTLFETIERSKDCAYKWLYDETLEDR
Assay: fluorescence anisotropy
endpoint-label: pKd
Keep it numeric: pKd is minus log10 of the concentration in mol/L.

**Query** Request the reported pKd associated with ATATAAGTAATA (ssDNA) [15S NT]
**Result** 6.89
